tested system: Adrenergic receptor alpha-1 (Rattus norvegicus, UniProt P15823+P23944+P43140)
procedure summary: Binding affinity towards Alpha-1 adrenergic receptor using 7-methoxy-[3H]-prazosin as radioligand in rat frontal cortex tissue
Type: tissue-based
Exercise: state measured Ki for each of the molecules provided.
Give bare numbers, in nM.

Consider the reported Ki for these molecules:
[
  {
    "smiles notation": "O=C(N[C@H]1CCN(Cc2ccccc2)C1)c1cccc(-c2cccs2)c1",
    "tested system": "Adrenergic receptor alpha-1 (Rattus norvegicus, UniProt P15823+P23944+P43140)",
    "Ki (nM)": 160
  },
  {
    "smiles notation": "O=C(N[C@H]1CCN(Cc2ccccc2)C1)c1ccc(-c2ccsc2)cc1",
    "tested system": "Adrenergic receptor alpha-1 (Rattus norvegicus, UniProt P15823+P23944+P43140)",
    "Ki (nM)": 610
  },
  {
    "smiles notation": "O=C(N[C@@H]1CCN(Cc2ccccc2)C1)c1ccc(-c2cccs2)cc1",
    "tested system": "Adrenergic receptor alpha-1 (Rattus norvegicus, UniProt P15823+P23944+P43140)",
    "Ki (nM)": 330
  }
]

Each molecule below has a reported value. Please supply its Ki.
1. O=C(N[C@H]1CCN(Cc2ccccc2)C1)c1ccc(-c2cccs2)cc1
2. O=C(N[C@@H]1CCN(Cc2ccccc2)C1)c1ccc(-c2ccsc2)cc1
3. O=C(N[C@H]1CCN(Cc2ccccc2)C1)c1cccc(-c2ccsc2)c1
4. O=C(N[C@@H]1CCN(Cc2ccccc2)C1)c1cccc(-c2ccsc2)c1

1. 1200
2. 170
3. 140
4. 170

* * *

tested system: UniProtKB P21917
Sequence (P21917 whole entry): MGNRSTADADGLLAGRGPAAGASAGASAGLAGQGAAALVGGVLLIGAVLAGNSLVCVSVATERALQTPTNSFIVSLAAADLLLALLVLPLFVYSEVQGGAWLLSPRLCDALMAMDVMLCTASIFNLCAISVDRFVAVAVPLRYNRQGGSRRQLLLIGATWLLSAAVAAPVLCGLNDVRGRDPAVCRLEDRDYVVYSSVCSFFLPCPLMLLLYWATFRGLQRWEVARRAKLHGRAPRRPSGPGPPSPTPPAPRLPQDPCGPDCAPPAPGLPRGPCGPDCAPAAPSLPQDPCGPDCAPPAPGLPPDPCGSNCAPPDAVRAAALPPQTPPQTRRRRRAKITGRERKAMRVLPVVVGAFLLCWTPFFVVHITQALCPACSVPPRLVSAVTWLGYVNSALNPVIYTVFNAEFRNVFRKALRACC
procedure summary: Inhibitory concentration required to reverse the dopamine inhibition of forskolin-stimulated adenyl cyclase activity in CHO cells stably expressing hD4 receptor
quantity kind: pIC50
Numbers only, as −log10 of the molar value.

Reported pIC50 for O=C(NC1CCN(Cc2ccccc2)C1)c1ccc(-c2ccccc2)cc1 (stereo unspecified) : what is it?
5.82

* * *

tested system: D(2) dopamine receptor (Homo sapiens, UniProt P14416)
Sequence (P14416 whole entry): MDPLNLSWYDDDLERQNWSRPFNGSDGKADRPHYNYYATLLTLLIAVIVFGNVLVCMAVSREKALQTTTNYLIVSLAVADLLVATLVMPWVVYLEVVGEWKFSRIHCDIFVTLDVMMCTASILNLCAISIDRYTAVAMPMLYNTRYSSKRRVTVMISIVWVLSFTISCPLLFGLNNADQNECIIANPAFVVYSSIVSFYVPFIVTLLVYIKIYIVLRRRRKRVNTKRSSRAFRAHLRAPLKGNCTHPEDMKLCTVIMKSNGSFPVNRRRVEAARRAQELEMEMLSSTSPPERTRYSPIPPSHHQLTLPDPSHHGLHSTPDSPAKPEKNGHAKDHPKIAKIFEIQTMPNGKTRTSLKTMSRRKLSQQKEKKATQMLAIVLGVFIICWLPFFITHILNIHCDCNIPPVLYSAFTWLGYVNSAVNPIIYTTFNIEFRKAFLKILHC
procedure summary: Ability to displace [3H]spiperone from human Dopamine receptor D2S stably transfected in GH4C1 (rat pituitary) cells
quantity kind: log10 of Ki (log10 of the value in nM)
Friendly reminder: values = log10 of Ki, unit nM.

Consider the reported log10 of Ki for these compounds:
[
  {
    "compound": "Nc1cccc(-c2ccc(C(=O)NC3CCN(Cc4ccccc4)C3)cc2)c1 (centres undefined)",
    "log10 of Ki": 3.70
  },
  {
    "compound": "O=C(NC1CCN(Cc2ccccc2)C1)c1cccc(-c2ccccc2)c1 (centres undefined)",
    "log10 of Ki": 2.18
  },
  {
    "compound": "O=Cc1ccc(-c2ccc(C(=O)NC3CCN(Cc4ccccc4)C3)cc2)cc1 (centres undefined)",
    "log10 of Ki": 3.57
  }
]

Each compound below has a reported value. Please supply its log10 of Ki.
1. O=C(N[C@@H]1CCN(Cc2ccccc2)C1)c1cccc(-c2ccsc2)c1
2. O=C(NC1CCN(Cc2ccccc2)C1)c1ccc(-c2ccsc2)cc1 (centres undefined)
3. O=C(NC1CCN(Cc2ccccc2)C1)c1ccc(-c2ccc(F)cc2)cc1 (centres undefined)

1.97
3.08
2.08

Each compound below has a reported value. Please supply its log10 of Ki.
1. O=C(N[C@H]1CCN(Cc2ccccc2)C1)c1ccc(-c2ccsc2)cc1
2. O=C(NC1CCN(Cc2ccccc2)C1)c1ccc(-c2ccc(C(F)(F)F)cc2)cc1 (centres undefined)
3. O=C(NC1CCN(Cc2ccccc2)C1)c1ccc(-c2ccc(Cl)cc2)cc1 (centres undefined)
4. O=C(N[C@H]1CCN(Cc2ccccc2)C1)c1cccc(-c2cccs2)c1

3.00
3.90
3.41
1.78

Each compound below has a reported value. Please supply its log10 of Ki.
1. O=C(N[C@H]1CCN(Cc2ccccc2)C1)c1ccc(-c2cccs2)cc1
2. O=Cc1ccccc1-c1ccc(C(=O)NC2CCN(Cc3ccccc3)C2)cc1 (centres undefined)
3. O=C(N[C@@H]1CCN(Cc2ccccc2)C1)c1ccc(-c2ccsc2)cc1
4. O=C(NC1CCN(Cc2ccccc2)C1)c1ccc(-c2cccc(F)c2)cc1 (centres undefined)
5. O=C(NC1CCN(Cc2ccccc2)C1)c1ccc(-c2ccccc2)cc1 (centres undefined)
6. O=C(N[C@@H]1CCN(Cc2ccccc2)C1)c1ccc(-c2cccs2)cc1
7. CSc1ccc(-c2ccc(C(=O)NC3CCN(Cc4ccccc4)C3)cc2)cc1 (centres undefined)

1: 2.99; 2: 3.49; 3: 2.95; 4: 3.60; 5: 2.78; 6: 3.18; 7: 3.60

Each compound below has a reported value. Please supply its log10 of Ki.
1. O=C(N[C@H]1CCN(Cc2ccccc2)C1)c1cccc(-c2ccsc2)c1
2. O=C(NC1CCN(Cc2ccccc2)C1)c1ccc(-c2cccs2)cc1 (centres undefined)

1: 1.85; 2: 2.92
